Experimental system: Beta5 (Homo sapiens, UniProt P20618+P28074)
Assay details: Determination of Beta5 activity (fluorescence intensity assay, Suc-LLVY-AMC)
Type: biochemical
Applied conditions: purified human constitutive proteasome, incubation for 20 minutes
pIC50: −log10 of the molar value.

{"Molecule": "O=C(CCN1CCCOC1=O)N[C@@H](Cc1coc2ccccc12)B(O)O", "pIC50": "6.30 to 7.30"}
{"Molecule": "O=C(CCN1CCCC1=O)N[C@@H](Cc1ccc2ccccc2c1)B(O)O", "pIC50": "6.30 to 7.30"}
{"Molecule": "O=C(CCN1CCCC1=O)N[C@@H](Cc1coc2ccccc12)B(O)O", "pIC50": "6.30 to 7.30"}
{"Molecule": "Cc1ccc(C[C@H](NC(=O)CCN2CCCCC2=O)B(O)O)cc1", "pIC50": "5.30 to 6.30"}
{"Molecule": "O=C(CCN1CCCCC1=O)N[C@@H](Cc1cccc2ccccc12)B(O)O", "pIC50": "5.30 to 6.30"}
{"Molecule": "Cc1ccc(C[C@H](NC(=O)CCN2CCCCC2=O)B(O)O)cc1C", "pIC50": "5.30 to 6.30"}
{"Molecule": "COCc1ccc(C[C@H](NC(=O)CCN2CCCC2=O)B(O)O)cc1", "pIC50": "5.30 to 6.30"}
{"Molecule": "O=C(CN1C(=O)CSC1=O)N[C@@H](Cc1coc2ccccc12)B(O)O", "pIC50": "6.30 to 7.30"}
{"Molecule": "Cc1ccc(C[C@H](NC(=O)CCN2CCCCS2(=O)=O)B(O)O)c(C)c1", "pIC50": "5.30 to 6.30"}
{"Molecule": "Cc1ccc(C[C@H](NC(=O)CN2CCCC2=O)B(O)O)cc1", "pIC50": "5.30 to 6.30"}
{"Molecule": "O=C(CCN1CCCCC1=O)N[C@H](Cc1ccccc1)B(O)O", "pIC50": "5.30 to 6.30"}
{"Molecule": "Cc1ccc(C[C@H](NC(=O)CCN2CCCCS2(=O)=O)B(O)O)cc1", "pIC50": "6.30 to 7.30"}
{"Molecule": "O=C(CCN1CCCCCC1=O)N[C@@H](Cc1ccccc1)B(O)O", "pIC50": "5.30 to 6.30"}
{"Molecule": "O=C(CCN1C(=O)CCCC1=O)N[C@@H](Cc1ccccc1)B(O)O", "pIC50": "< 5.30"}
{"Molecule": "CCc1cccc(C[C@H](NC(=O)CCCN2CCOC2=O)B(O)O)c1", "pIC50": "< 5.30"}
{"Molecule": "O=C(CCN1CCCCC1=O)N[C@@H](Cc1ccc2ccccc2c1)B(O)O", "pIC50": "6.30 to 7.30"}
{"Molecule": "O=C(CCN1CCCC1=O)N[C@@H](Cc1cccc2ccccc12)B(O)O", "pIC50": "5.30 to 6.30"}
{"Molecule": "O=C(CCN1CC(c2ccccc2)CC1=O)N[C@@H](Cc1ccccc1)B(O)O (stereo partly shown)", "pIC50": "6.30 to 7.30"}
{"Molecule": "Cc1ccc(C[C@H](NC(=O)C2CCC(=O)N2c2ccccc2)B(O)O)c(C)c1 (stereo partly shown)", "pIC50": "5.30 to 6.30"}
